- Test system: Fibroblast
- assay remarks: Incucyte cell viability with human fibroblast; also: filed as whole numbers so only -1 and 0 and 1 occur
- Type: toxicity, cell-based
- experimental context: 0 h, 10 µM, compound concentration 10 uM, replicate number 2, timepoint 0 hours
We begin with a simple list: items and their reported Growth Rate.

compound | Growth Rate
COc1cc(C#N)ccc1S(=O)(=O)Nc1ccc2c(c1)cc(C)c(=O)n2C | 0
c1cc(CN2CCCNCCNCCCNCC2)ccc1CN1CCCNCCNCCCNCC1 [PLERIXAFOR] | 1
Oc1cccc(-c2nc(N3CCOCC3)c3oc4ncccc4c3n2)c1 [PI-103] | 0
CN1CCN(c2ccc(-c3cccc(CN4CCOCC4)c3)cc2NC(=O)c2c[nH]c(=O)cc2C(F)(F)F)CC1 | 1
Cc1c(Nc2ccc(S(=O)(=O)N3CCN(C)CC3)cc2F)nc2ccc(Nc3cnn(C4CC4)c3)cn2c1=O | 0
COc1cccc(CNC(=O)c2nc3scc(COCc4ccc(C(=O)O)cc4)c3c(=O)[nH]2)c1 [T-26c] | 0
N#CCNC(=O)c1ccc(-c2ccnc(Nc3ccc(N4CCOCC4)cc3)n2)cc1 [MOMELOTINIB] | 0
C[C@H](NC(=O)Nc1cc2[nH]ncc2c(CO)n1)c1ccccn1 [ERKi-NC] | 1
CN(c1cc(C(F)(F)F)nc(OCCC(=O)O)n1)c1cccc2c1CCC2 | 0
CCCc1cc(C)[nH]c(=O)c1CNC(=O)c1cc(-c2ccc(N3CCN(C(C)C)CC3)nc2)cc2c1cnn2C(C)C | 0
CCCCN(Cc1ccccc1)C(=O)c1ccc(S(=O)(=O)Nc2ccccc2)cc1 | 1
CCN(Cc1ccc(Cl)cc1)c1ncc(C(=O)NCCCN2CCCC2=O)c(NC2CCCC2)n1 | 0
NC(=O)[C@@H]1CCCN1C(=O)[C@H](Cc1cnc[nH]1)NC(=O)[C@@H]1CCC(=O)N1 [PROTIRELIN] | 1
CC1=C2C[C@H]3[C@@H](CC=C4C[C@@H](O)CC[C@@]43C)[C@@H]2CC[C@]12O[C@@H]1C[C@H](C)CN[C@H]1[C@H]2C [CYCLOPAMINE] | 1
CCN(CCO)CCCOc1ccc2c(Nc3cc(CC(=O)Nc4cccc(F)c4)[nH]n3)ncnc2c1 [DEFOSBARASERTIB] | 1
Cc1c(C2=CCN(C(=O)N(C)C(C)C)CC2)nnn1-c1cccnc1F | 0
C[C@@H](Oc1cc(-n2cnc3ccc(CN4CCN(C)CC4)cc32)sc1C(N)=O)c1ccccc1C(F)(F)F [GSK-461364] | 0

###

- Test system: U2OS
- assay remarks: Multiplex assay against U2OS
- Format: toxicity, cell-based
- experimental context: human, 24 h, 10 µM, compound concentration 10 uM, replicate 2
reported metric: Population Hoechst High Intensity Objects (%)

compound | target or system | u | quantitative result
Cl.NC[C@@H]1O[C@H](C23CC4CC(CC(C4)C2)C3)Cc2c1ccc(O)c2O | U2OS | % | 18
CC(Cc1ccc(O)c(O)c1)C(C)Cc1ccc(O)c(O)c1 (configuration not stated) [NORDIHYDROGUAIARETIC ACID] | U2OS | % | 5
C[C@@H](Oc1cc(-n2cnc3ccc(CN4CCN(C)CC4)cc32)sc1C(N)=O)c1ccccc1C(F)(F)F | U2OS | % | 6
CC[C@@H]1C(=O)N(C)c2cnc(Nc3ccc(C(=O)NC4CCN(C)CC4)cc3OC)nc2N1C1CCCC1 | U2OS | % | 10
Cl.Cn1c2c(c3ccc(Cl)c(Cl)c31)C(C#N)C1(CCNCC1)NC2=O (configuration not stated) | U2OS | % | 30
CCOc1ccn(-c2ccc(F)cc2)c(=O)c1C(=O)Nc1ccc(Oc2ccnc(N)c2Cl)c(F)c1 | U2OS | % | 8
c1ccc(-c2oc3ncnc(NC[C@@H]4CCCO4)c3c2-c2ccccc2)cc1 | U2OS | % | 10
Cc1c(P(=S)(c2ccccc2)c2ccccc2)n2ccccc2[n+]1C/C=C/c1ccccc1.[Br-] | U2OS | % | 26
CC(C)[C@H](CO)Nc1nc(Nc2cccc(Cl)c2)c2ncn(C(C)C)c2n1 | U2OS | % | 8
CN1C(=O)[C@@H](NC(=O)c2cc3ccccc3[nH]2)N=C(c2ccccc2)c2ccccc21 [DEVAZEPIDE] | U2OS | % | 7
CCCCN(CC)c1nc(C)nc2c1c(C)cn2-c1c(C)cc(C)cc1C.Cl | U2OS | % | 4
CC(/C=C1\SC(=S)N(CCCC(=O)Nc2ccc(C(=O)O)c(O)c2)C1=O)=C\c1ccccc1 | U2OS | % | 4
CCOC(=O)CCNc1cc(N2CCc3ccccc3CC2)nc(-c2ccccn2)n1 | U2OS | % | 7
N#Cc1cccc(C(=O)Nc2cc(-c3ccccc3)nn2-c2ccccc2)c1 | U2OS | % | 6
CC[C@@]1(O)C(=O)OCc2c1cc1n(c2=O)Cc2cc3ccccc3nc2-1 | U2OS | % | 10
CC[C@H](Nc1ncnc2[nH]cnc12)c1nc2cccc(F)c2c(=O)n1-c1ccccc1 | U2OS | % | 8
CN(c1cc(C(F)(F)F)nc(OCCC(=O)O)n1)c1cccc2c1CCC2 | U2OS | % | 13
Cc1ccc(NC(=O)Nc2cc(C(F)(F)F)ccc2F)cc1Nc1ccc2c(c1)NC(=O)/C2=C\c1ccc[nH]1 | U2OS | % | 8
CCCCCNC(=N)N/N=C/c1c[nH]c2ccc(OC)cc12.O=C(O)/C=C\C(=O)O [TEGASEROD MALEATE] | U2OS | % | 39
C=CC(=O)Nc1cc(-n2c(=O)ccc3cnc4ccc(-c5ccc(NS(C)(=O)=O)cc5)cc4c32)ccc1C | U2OS | % | 5
CCCc1cc(C)[nH]c(=O)c1CNC(=O)c1cc(-c2ccc(N3CCN(C(C)C)CC3)nc2)cc2c1cnn2C(C)C | U2OS | % | 9
Oc1cccc(-c2nc(N3CCOCC3)c3oc4ncccc4c3n2)c1 | U2OS | % | 4
Cc1c(Nc2ccc(S(=O)(=O)N3CCN(C)CC3)cc2F)nc2ccc(Nc3cnn(C4CC4)c3)cn2c1=O | U2OS | % | 11
NC(=O)c1ccc2nc(-c3ccc(C4(N)CCC4)cc3)c(-c3ccccc3)n2n1 | U2OS | % | 5
CC(C)c1cc(Nc2nc(N3CCC[C@H](N)C3)ncc2C(N)=O)cc(C(C)C)n1 | U2OS | % | 17
N#CCNC(=O)c1ccc(-c2ccnc(Nc3ccc(N4CCOCC4)cc3)n2)cc1 | U2OS | % | 5
Cc1ccc(S(=O)(=O)NC2c3ccccc3Oc3ccccc32)cc1 | U2OS | % | 4
